Below, each entry is listed alongside its reported Therapeutic Index (TC50/IC50).
- Tested on: HCV luciferase replicon
- method: IC50 assay: inhibition of the HCV luciferase replicon in Huh7 cells
- Assay type: cell-based
- condition: TC50 in Huh7 / IC50 HCV replicon, 48 h
assay-readout: Therapeutic Index (TC50/IC50)

# compound, experimental-system, numeric-value
data = [
    ("CCCC(CCC)C(=O)Nc1ccn(C2O[C@H](CO)[C@@H](O)C2(F)F)c(=O)n1 (stereo partly drawn) [Non-phosphorylated analog of Compound 1]", "HCV luciferase replicon", 850),
    ("CCCC(CCC)C(=O)Nc1ccn([C@@H]2O[C@@H]3CO[P@@](=O)(OC(C)C)O[C@H]3C2(F)F)c(=O)n1 [Compound 2]", "HCV luciferase replicon", 23.4),
    ("CCCC(CCC)C(=O)Nc1ccn([C@@H]2O[C@H](CO[P@@](=O)(N[C@@H](C)C(=O)OC(C)C)Oc3ccccc3)[C@@H](O)C2(F)F)c(=O)n1 [Compound 1]", "HCV luciferase replicon", 198),
    ("CC(C)OC(=O)[C@H](C)NP(=O)(OC[C@H]1OC(n2ccc(NC(=O)C3Cc4ccccc4C3)nc2=O)C(F)(F)[C@@H]1O)Oc1ccccc1 (stereo in doubt) [Compound 13]", "HCV luciferase replicon", 684),
    ("O=C(Nc1ccn(C2O[C@H](CO)[C@@H](O)C2(F)F)c(=O)n1)c1ccc2c(c1)OCO2 (stereo partly drawn) [Non-phosphorylated analog of Compound 4]", "HCV luciferase replicon", 7910),
    ("CC(C)OC(=O)[C@H](C)N[P@](=O)(OC[C@H]1O[C@@H](n2ccc(NC(=O)c3ccc4c(c3)OCO4)nc2=O)C(F)(F)C1O)Oc1ccccc1 (stereo in doubt) [Compound 4]", "HCV luciferase replicon", 134),
    ("COc1cc(C(=O)Nc2ccn([C@@H]3O[C@H](CO[P@@](=O)(N[C@@H](C)C(=O)OC(C)C)Oc4ccccc4)C(O)C3(F)F)c(=O)n2)cc(OC)c1OC (stereo in doubt) [Compound 3]", "HCV luciferase replicon", 210),
    ("O=C(Nc1ccn(C2O[C@H](CO)[C@@H](O)C2(F)F)c(=O)n1)c1ccc2cc(Br)ccc2c1 (stereo partly drawn) [Compound 6]", "HCV luciferase replicon", 400),
]
